molecular target: Stimulator of interferon genes protein (Homo sapiens, UniProt Q86WV6); test: Activation of wild-type human STING expressed in HEK293T cells co-expressing IRF3-activated ISRE assessed as IRF3 reporter activation measured after 7 hrs by luciferase reporter gene assay; type: cell-based
Sequence (Q86WV6 whole entry): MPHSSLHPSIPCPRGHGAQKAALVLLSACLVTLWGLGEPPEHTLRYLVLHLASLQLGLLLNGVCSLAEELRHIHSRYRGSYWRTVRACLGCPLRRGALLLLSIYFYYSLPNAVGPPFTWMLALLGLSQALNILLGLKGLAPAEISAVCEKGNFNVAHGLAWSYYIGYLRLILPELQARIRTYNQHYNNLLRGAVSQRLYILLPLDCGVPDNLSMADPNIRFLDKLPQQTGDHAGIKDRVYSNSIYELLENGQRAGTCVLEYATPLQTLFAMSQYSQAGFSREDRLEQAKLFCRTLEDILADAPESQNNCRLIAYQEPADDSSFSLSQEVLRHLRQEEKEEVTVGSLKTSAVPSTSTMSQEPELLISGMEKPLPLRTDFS
QUANTITY: EC50 (nM)
Numbers only here, please. The scale is nM.

Answered examples (5):
Per the record, CC(C)OC(=O)OCO[P@@]1(=O)OC[C@H]2O[C@@H](n3cnc4c(N)ncnc43)[C@H](F)[C@@H]2O[P@](=O)(OCOC(=O)OC(C)C)OC[C@H]2O[C@@H](n3cnc4c(N)ncnc43)[C@H](F)[C@@H]2O1 has EC50 of 170

Noted for CCC(CC)C(=O)OCO[P@]1(=O)OC[C@H]2O[C@@H](n3cnc4c(N)ncnc43)[C@H](F)[C@@H]2O[P@](=O)(OCOC(=O)C(CC)CC)OC[C@H]2O[C@@H](n3cnc4c(N)ncnc43)[C@H](F)[C@@H]2O1 : its EC50 reads 10

The compound listed as CC(C)(C)C(=O)OCS[P@]1(=O)OC[C@H]2O[C@@H](n3cnc4c(N)ncnc43)[C@H](F)[C@@H]2O[P@](=O)(SCOC(=O)C(C)(C)C)OC[C@H]2O[C@@H](n3cnc4c(N)ncnc43)[C@H](F)[C@@H]2O1 shows EC50 equal to 120

Data point: CC(C)OC(=O)OCO[P@]1(=O)OC[C@H]2O[C@@H](n3cnc4c(N)ncnc43)[C@H](F)[C@@H]2O[P@](=O)(OCOC(=O)OC(C)C)OC[C@H]2O[C@@H](n3cnc4c(N)ncnc43)[C@H](F)[C@@H]2O1 ; EC50 = 30

Record CC(C)(C)C(=O)OCO[P@]1(=O)OC[C@H]2O[C@@H](n3cnc4c(N)ncnc43)[C@H](F)[C@@H]2OP(=O)(O)OC[C@H]2O[C@@H](n3cnc4c(N)ncnc43)[C@H](F)[C@@H]2O1 , field EC50: 130

New cases:
// sample CCC(CC)C(=O)OCO[P@]1(=O)OC[C@H]2O[C@@H](n3cnc4c(N)ncnc43)[C@H](F)[C@@H]2OP(=O)(O)OC[C@H]2O[C@@H](n3cnc4c(N)ncnc43)[C@H](F)[C@@H]2O1 , its EC50 was 450

Short answer for CC(C)(C)C(=O)OCO[P@@]1(=O)OC[C@H]2O[C@@H](n3cnc4c(N)ncnc43)[C@H](F)[C@@H]2O[P@](=O)(OCOC(=O)C(C)(C)C)OC[C@H]2O[C@@H](n3cnc4c(N)ncnc43)[C@H](F)[C@@H]2O1 : EC50 was 40

====

biological target: Stimulator of interferon genes protein (Homo sapiens); experiment: Activation of wild-type human STING expressed in digitonin treated human THP1-Dual cells co-expressing IRF3-activated ISRE assessed as IRF3 reporter activation measured after 30 mins by luciferase reporter gene assay; assay type: cell-based
pEC50: −log10 of the molar value.
Label met when pEC50 is at or above 6; anything below gets not met.

Determine whether measured pEC50 meets or exceeds 6 for CCC(CC)C(=O)OCO[P@]1(=O)OC[C@H]2O[C@@H](n3cnc4c(N)ncnc43)[C@H](F)[C@@H]2O[P@](=O)(OCOC(=O)C(CC)CC)OC[C@H]2O[C@@H](n3cnc4c(N)ncnc43)[C@H](F)[C@@H]2O1
met

Dear colleague, could you confirm whether Nc1nc2c(ncn2[C@@H]2O[C@@H]3COP(=O)(O)O[C@@H]4[C@H](O)[C@@H](COP(=O)(O)O[C@@H]2[C@@H]3O)O[C@H]4n2cnc3c(N)ncnc32)c(=O)[nH]1 has pEC50 at or above 6?
not met

// inclusive: pEC50 at least 6? input: CC(C)(C)C(=O)OCO[P@]1(=O)OC[C@H]2O[C@@H](n3cnc4c(N)ncnc43)[C@H](F)[C@@H]2OP(=O)(O)OC[C@H]2O[C@@H](n3cnc4c(N)ncnc43)[C@H](F)[C@@H]2O1
met

Okay, now this compound:
Kindly determine if pEC50 recorded for CC(C)OC(=O)OCO[P@]1(=O)OC[C@H]2O[C@@H](n3cnc4c(N)ncnc43)[C@H](F)[C@@H]2OP(=O)(O)OC[C@H]2O[C@@H](n3cnc4c(N)ncnc43)[C@H](F)[C@@H]2O1 is above or exactly 6.
not met

====

molecular target: Stimulator of interferon genes protein (Homo sapiens, UniProt Q86WV6, G230A/R293Q); test: Activation of human STING QA mutant expressed in digitonin treated HEK293T cells co-expressing IRF3-activated ISRE assessed as IRF3 reporter activation by luciferase reporter gene assay
Sequence (Q86WV6 whole entry G230A/R293Q): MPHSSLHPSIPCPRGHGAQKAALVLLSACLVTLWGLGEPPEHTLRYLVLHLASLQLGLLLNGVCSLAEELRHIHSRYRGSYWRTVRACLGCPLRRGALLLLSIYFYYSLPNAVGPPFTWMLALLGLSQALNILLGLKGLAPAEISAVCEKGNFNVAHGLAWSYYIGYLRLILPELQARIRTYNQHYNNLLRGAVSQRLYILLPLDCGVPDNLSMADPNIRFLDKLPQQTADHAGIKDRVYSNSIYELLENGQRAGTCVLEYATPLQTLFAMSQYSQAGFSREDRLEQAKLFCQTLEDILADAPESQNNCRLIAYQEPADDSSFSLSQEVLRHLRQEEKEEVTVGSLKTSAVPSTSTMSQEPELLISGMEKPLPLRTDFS
Each entry below carries its recorded EC50.
Lab book: enter the figure in nM, no units written.

Some compounds with recorded EC50:
// sample Nc1ncnc2c1ncn2[C@@H]1O[C@@H]2CO[P@](=O)(S)O[C@H]3[C@@H](F)[C@H](n4cnc5c(N)ncnc54)O[C@@H]3CO[P@](=O)(S)O[C@H]2[C@H]1F , its EC50 was 260

Given item Nc1ncnc2c1ncn2[C@@H]1O[C@@H]2CO[P@@](=O)(S)O[C@H]3[C@@H](F)[C@H](n4cnc5c(N)ncnc54)O[C@@H]3COP(=O)(O)O[C@H]2[C@H]1F , the value recorded as its EC50 is 40

EC50 recorded for this compound, Nc1ncnc2c1ncn2[C@@H]1O[C@@H]2CO[P@@](=O)(S)O[C@H]3[C@@H](F)[C@H](n4cnc5c(N)ncnc54)O[C@@H]3CO[P@@](=O)(S)O[C@H]2[C@H]1F , is 40

Just so you know, measured EC50 for Nc1ncnc2c1ncn2[C@@H]1O[C@@H]2COP(=O)(O)O[C@H]3[C@@H](O)[C@H](n4cnc5c(N)ncnc54)O[C@@H]3COP(=O)(O)O[C@H]2[C@H]1O came out at 170

Please find the next compound below.
What the record says about Nc1ncnc2c1ncn2[C@@H]1O[C@@H]2CO[P@](=O)(S)O[C@H]3[C@@H](F)[C@H](n4cnc5c(N)ncnc54)O[C@@H]3COP(=O)(O)O[C@H]2[C@H]1F : EC50 is 70

====

target: Stimulator of interferon genes protein (Homo sapiens, UniProt Q86WV6); experiment: Potency index, ratio of test compound EC50 to prodrug EC50 for activation of wild-type human STING expressed in digitonin treated THP1-Dual cells co-expressing IRF3-activated ISRE assessed as IRF3 reporter activation measured after 7 hrs by luciferase reporter gene assay; assay type: cell-based
// returns F unless Ratio EC50 is strictly below 7, in which case T

These recorded examples may help you get a feel for the data.
Lab log: compare recorded Ratio EC50 with 7; is it strictly lower for CC(C)(C)C(=O)OCS[P@]1(=O)OC[C@H]2O[C@@H](n3cnc4c(N)ncnc43)[C@H](F)[C@@H]2O[P@](=O)(SCOC(=O)C(C)(C)C)OC[C@H]2O[C@@H](n3cnc4c(N)ncnc43)[C@H](F)[C@@H]2O1 ?
F

Please state whether Ratio EC50 is below 7 for CC(C)(C)C(=O)OCO[P@]1(=O)OC[C@H]2O[C@@H](n3cnc4c(N)ncnc43)[C@H](F)[C@@H]2OP(=O)(O)OC[C@H]2O[C@@H](n3cnc4c(N)ncnc43)[C@H](F)[C@@H]2O1
T

For CC(C)OC(=O)OCO[P@]1(=O)OC[C@H]2O[C@@H](n3cnc4c(N)ncnc43)[C@H](F)[C@@H]2OP(=O)(O)OC[C@H]2O[C@@H](n3cnc4c(N)ncnc43)[C@H](F)[C@@H]2O1 , is the recorded Ratio EC50 below the cut-off of 7?
T

# strict comparison: is reported Ratio EC50 < 7? input = CC(C)(C)C(=O)OCS[P@@]1(=O)OC[C@H]2O[C@@H](n3cnc4c(N)ncnc43)[C@H](F)[C@@H]2O[P@](=O)(SCOC(=O)C(C)(C)C)OC[C@H]2O[C@@H](n3cnc4c(N)ncnc43)[C@H](F)[C@@H]2O1
F

Input CC(C)(C)C(=O)OCS[P@@]1(=O)OC[C@H]2O[C@@H](n3cnc4c(N)ncnc43)[C@H](F)[C@@H]2O[P@@](=O)(SCOC(=O)C(C)(C)C)OC[C@H]2O[C@@H](n3cnc4c(N)ncnc43)[C@H](F)[C@@H]2O1 ; condition: Ratio EC50 strictly below 7. Does it hold?
F

Switching to the query record.
Field: below-cutoff. Rule: recorded Ratio EC50 strictly less than 7. Subject: Nc1ncnc2c1ncn2[C@@H]1O[C@@H]2CO[P@@](=O)(OCOC(=O)c3ccccc3)O[C@H]3[C@@H](F)[C@H](n4cnc5c(N)ncnc54)O[C@@H]3COP(=O)(O)O[C@H]2[C@H]1F
T

====

target: Stimulator of interferon genes protein (Homo sapiens, UniProt Q86WV6); assay: Potency index, ratio of test compound EC50 to prodrug EC50 for activation of wild-type human STING expressed in HEK293T cells co-expressing IRF3-activated ISRE assessed as IRF3 reporter activation measured after 30 mins by luciferase reporter gene assay; format: cell-based
QUANTITY: Ratio EC50
Lab note: record the figure alone, no unit after it.

Reported Ratio EC50 of CC(C)OC(=O)OCO[P@]1(=O)OC[C@H]2O[C@@H](n3cnc4c(N)ncnc43)[C@H](F)[C@@H]2OP(=O)(O)OC[C@H]2O[C@@H](n3cnc4c(N)ncnc43)[C@H](F)[C@@H]2O1 : 50

Entry CC(C)(C)C(=O)OCS[P@@]1(=O)OC[C@H]2O[C@@H](n3cnc4c(N)ncnc43)[C@H](F)[C@@H]2O[P@](=O)(SCOC(=O)C(C)(C)C)OC[C@H]2O[C@@H](n3cnc4c(N)ncnc43)[C@H](F)[C@@H]2O1 — recorded Ratio EC50 = 14

Further cases:
So for CC(C)(C)C(=O)OCS[P@@]1(=O)OC[C@H]2O[C@@H](n3cnc4c(N)ncnc43)[C@H](F)[C@@H]2O[P@@](=O)(SCOC(=O)C(C)(C)C)OC[C@H]2O[C@@H](n3cnc4c(N)ncnc43)[C@H](F)[C@@H]2O1 , the logged Ratio EC50 turned out to be 62

All figures here come from ChEMBL document CHEMBL5036318.
